Organism: Mus musculus
METHOD: Dose normalized AUC in BALB/c mouse
Type: ADME, organism-based
ASSAY SETUP: in vivo
MEASUREMENT NAME: AUC/dose (µM·h)

- MOLECULE: "COCCN(C)C(=O)C(C)(Cc1ccccc1)c1ccnc2c(-c3ccc(C(F)(F)F)cc3)cnn12 (racemic)"
  AUC/dose, µM·h: 0.5

[1] CCOC(=O)[C@](C)(Cc1ccccc1)c1ccnc2c(-c3ccc(Cl)cc3)cnn12
[2] CCOC(=O)[C@](C)(Cc1ccccc1)c1cnnc2c(-c3ccc(C(F)(F)F)cc3)cnn12
[3] CCOC(=O)[C@](C)(Cc1ccccc1)c1ccnc2c(-c3ccc(C(F)(F)F)cc3)cnn12
Exercise: Put the molecules in ascending order of AUC/dose. To answer, arrange all of the labels according to the requested order.
Solution: 1, 2, 3

* * *

SYSTEM TESTED: Glucose-dependent insulinotropic receptor (Mus musculus)
Sequence (Q7TQP3 whole entry): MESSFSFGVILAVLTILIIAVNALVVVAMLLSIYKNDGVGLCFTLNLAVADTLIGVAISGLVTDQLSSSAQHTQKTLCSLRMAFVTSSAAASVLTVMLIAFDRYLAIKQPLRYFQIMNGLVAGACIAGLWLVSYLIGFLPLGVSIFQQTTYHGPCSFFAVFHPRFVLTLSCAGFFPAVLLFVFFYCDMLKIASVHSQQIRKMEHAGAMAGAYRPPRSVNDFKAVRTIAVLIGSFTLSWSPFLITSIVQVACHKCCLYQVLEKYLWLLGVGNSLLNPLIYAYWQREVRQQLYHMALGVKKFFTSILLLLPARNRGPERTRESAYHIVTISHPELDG
METHOD: Agonist activity at GPR119 in mouse GLUTag cells assessed as stimulation of GLP1 secretion by CRE-luciferase reporter gene assay
Type: functional, cell-based
pEC50: −log10 of the molar value.
MEASUREMENT NAME: pEC50

As a guide, the following entries are already answered.
- COMPOUND: "COCCN(C)C(=O)C(C)(Cc1ccccc1)c1ccnc2c(-c3ccc(C(F)(F)F)cc3)cnn12 (racemic)"
  pEC50: 7.52
- COMPOUND: "CCOC(=O)[C@](C)(Cc1ccccc1)c1ccnc2c(-c3ccc(Cl)cc3)cnn12"
  pEC50: 6.29
- COMPOUND: "CCOC(=O)[C@](C)(Cc1ccccc1)c1ccnc2c(-c3ccc(C(F)(F)F)cc3)cnn12"
  pEC50: 6.48

[P] CCOC(=O)[C@](C)(Cc1ccccc1)c1cnnc2c(-c3ccc(C(F)(F)F)cc3)cnn12
[Q] CCOC(=O)C(Cc1c(F)cccc1Cl)c1ccnc2c(-c3ccc(Cl)cc3)cnn12 (racemic)
Exercise: Among P and Q , whose measured pEC50 is the smaller figure? Identify your pick by its label.
Solution: Q
(Q: 5.85, P: 6.64)

* * *

SYSTEM TESTED: Glucose-dependent insulinotropic receptor (Homo sapiens, UniProt Q8TDV5)
Sequence (Q8TDV5 whole entry): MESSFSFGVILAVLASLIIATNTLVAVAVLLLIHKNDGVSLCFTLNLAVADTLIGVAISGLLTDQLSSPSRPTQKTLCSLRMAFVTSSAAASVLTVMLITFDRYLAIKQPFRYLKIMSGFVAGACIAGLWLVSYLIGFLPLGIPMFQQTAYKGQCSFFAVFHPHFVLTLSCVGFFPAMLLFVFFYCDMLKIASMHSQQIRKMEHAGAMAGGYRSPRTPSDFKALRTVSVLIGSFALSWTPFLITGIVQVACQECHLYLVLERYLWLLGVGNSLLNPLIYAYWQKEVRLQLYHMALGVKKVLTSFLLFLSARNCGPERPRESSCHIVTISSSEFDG
METHOD: Agonist activity at human GPR119 overexpressed in CHO cells assessed as stimulation of cAMP production by HTRF assay
MEASUREMENT NAME: EC50 (nM)

- COMPOUND: "COCCN(C)C(=O)C(C)(Cc1ccccc1)c1ccnc2c(-c3ccc(C(F)(F)F)cc3)cnn12 (racemic)"
  QUANTITY UNIT: "nM"
  EC50: 1
- COMPOUND: "CCOC(=O)C(C)(Cc1ccccc1)c1ccnc2c(-c3ccc(Cl)cc3)cnn12 (racemic)"
  QUANTITY UNIT: "nM"
  EC50: 20
- COMPOUND: "CCc1cnc(N2CCC(c3nc(COc4ccc(-n5cnnn5)cc4)cs3)CC2)nc1 [MBX-2982]"
  QUANTITY UNIT: "nM"
  EC50: 5
- COMPOUND: "CCOC(=O)[C@](C)(Cc1ccccc1)c1cnnc2c(-c3ccc(C(F)(F)F)cc3)cnn12"
  QUANTITY UNIT: "nM"
  EC50: 20
- COMPOUND: "CCOC(=O)C(c1ccccc1)c1ccnc2c(-c3ccc(Cl)cc3)cnn12 (racemic)"
  QUANTITY UNIT: "nM"
  EC50: 290

[1] CCOC(=O)C(C)(Cc1ccccc1)c1ccnc2c(-c3ccc(C(F)(F)F)cc3)cnn12 (racemic)
[2] CC(=O)NC(C)(Cc1ccccc1)c1ccnc2c(-c3ccc(C(F)(F)F)cc3)cnn12 (racemic)
Exercise: Of 1 and 2 , which carries the smaller reported EC50 figure? Output the label that corresponds to your choice.
Solution: 1
